The origin of these recorded values is patent US5789434A.

Target: MMP-9 (Homo sapiens, UniProt P14780)
Construct: from tissue; host or cells: human polymorphonuclear leukocytes (PMN) from whole blood (New York Blood Center), PMA-stimulated supernatant
Sequence (P14780 107-707 limits assumed): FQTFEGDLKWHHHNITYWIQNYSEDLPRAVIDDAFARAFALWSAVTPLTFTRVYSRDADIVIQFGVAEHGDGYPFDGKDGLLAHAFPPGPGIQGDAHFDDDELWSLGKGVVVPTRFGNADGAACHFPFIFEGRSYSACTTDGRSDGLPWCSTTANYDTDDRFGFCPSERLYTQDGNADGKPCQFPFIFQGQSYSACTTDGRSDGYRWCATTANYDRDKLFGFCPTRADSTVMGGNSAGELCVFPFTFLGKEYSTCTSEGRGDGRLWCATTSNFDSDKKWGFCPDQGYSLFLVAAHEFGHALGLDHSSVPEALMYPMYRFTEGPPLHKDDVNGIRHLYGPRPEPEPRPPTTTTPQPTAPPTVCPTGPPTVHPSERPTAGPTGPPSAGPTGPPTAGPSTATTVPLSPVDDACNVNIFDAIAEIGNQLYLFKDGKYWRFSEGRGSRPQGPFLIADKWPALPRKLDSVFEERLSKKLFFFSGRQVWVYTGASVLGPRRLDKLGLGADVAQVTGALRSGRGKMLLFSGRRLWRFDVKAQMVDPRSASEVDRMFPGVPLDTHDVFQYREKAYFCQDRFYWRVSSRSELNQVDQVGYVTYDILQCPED
Test: Thiopeptilide MMP-9 Inhibition Assay
Type: biochemical
Conditions: at 5 μM; read-out: MMP-9: Thiopep. % inhibition
quantity_kind: inhibition at 5 µM (%)

Consider the reported inhibition at 5 µM for these molecules:
{"molecule": "O=C(CC(CCCc1ccccc1)c1nnn[nH]1)c1ccc(-c2ccc(Br)cc2)cc1 (stereo not drawn)", "quantity_kind": "inhibition at 5 µM", "endpoint_value": 14}
{"molecule": "O=C(C[C@@H](CCCc1ccccc1)C(=O)O)c1ccc(-c2ccc(Cl)cc2)cc1", "quantity_kind": "inhibition at 5 µM", "endpoint_value": 31}
{"molecule": "CC(=O)SCC(CC(=O)c1ccc(C)cc1)C(=O)O (stereo not drawn) [Example 253, reference compound]", "quantity_kind": "inhibition at 5 µM", "endpoint_value": 21}
{"molecule": "CC(C)(CC(=O)c1ccc(-c2ccc(Cl)cc2)cc1)C(=O)O", "quantity_kind": "inhibition at 5 µM", "endpoint_value": 0}
{"molecule": "C=C(CC(=O)c1ccc(-c2ccccc2Cl)cc1)C(=O)O [Example 24, reference compound]", "quantity_kind": "inhibition at 5 µM", "endpoint_value": 0}

[1] C=C(CC(O)c1ccc(-c2ccc(Cl)cc2)cc1)C(=O)O (stereo not drawn) [Example 38, reference compound]
[2] Cc1nc(-c2ccc(C(=O)CC(CC(C)C)C(=O)O)cc2)cs1 (stereo not drawn)
# input I'd appreciate it if you could identify which of 1 and 2 has the greater inhibition at 5 µM. Choose, then provide that item's label.
# output 2
(2: 36%, 1: 10%)

[A] CC(C)CC1CC(c2ccc(-c3ccc(Cl)cc3)cc2)OC1=O (stereo not drawn) [Example 36, reference compound]
[B] O=C(CC(CCCc1ccccc1)C(=O)O)c1ccc(-c2ccc(Cl)c(Cl)c2)cc1 (stereo not drawn)
[C] O=C(O)[C@@H]1CCCC[C@H]1C(=O)c1ccc(-c2ccc(Cl)cc2)cc1 (relative stereo)
# input Sort by inhibition at 5 µM, descending. Please list each label once, in the requested order.
# output B, C, A
(B: 47%, C: 21%, A: 0%)
